Listed compounds paired with reported normalized growth
- test-description: chemical genetic growth profiling, strain panel (AID 1159580);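 also: tested at 20 µM; growth read once vehicle control cultures reached saturation at 30 °C; 1 = growth at the plate median or of vehicle wells; lower values mean less growth of the strain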
- assay-conditions: S. cerevisiae deletion strains, growth OD, locus YML016C, strain PPZ1, stronger effect = lower value
Out of some 5,500 compounds screened, about 2,000 (36%) were called active. About 18% were inconclusive and are not listed. The list shows a part of the results.

{"columns": ["compound", "normalized growth"],
 "data": [
  ["CC(C)c1ccc2c(c1O)CC[C@H]1C3=C(CC[C@]21C)C(=O)OC3", 0.969],
  ["CCN(CCCCOC(=O)c1ccc(OC)c(OC)c1)C(C)Cc1ccc(OC)cc1 (stereo not given)", 0.978],
  ["COC(=O)C[C@H]1C(C)(C)C(=O)[C@@H]2CC3=C4CC(OC)O[C@@H](c5ccoc5)[C@]4(C)CCC3[C@@]1(C)C2=O (stereo not given in full)", 1],
  ["O=C1CC[C@]23C=CC(=O)NCCCCNCCCNC(=O)/C=C/c4ccc(c2c4)O[C@@H]3C1", 1.01],
  ["COc1cc(O)c2c(=O)c(-c3ccc(O)cc3)coc2c1", 0.947]
]}

###

Listed compounds paired with reported normalized growth
- test-description: chemical genetic growth profiling, strain panel (AID 1159580)
- assay-conditions: S. cerevisiae deletion strains, growth OD, locus YBR160W, strain CDC28, stronger effect = lower value
About 2,000 (36%) of roughly 5,500 compounds were called active. Another 18% or so got no clear call; they are omitted. Some of the results follow.

{"columns": ["compound", "normalized growth"],
 "data": [
  ["CCCc1cnc(N2CCN(CC(=O)N(c3ccccc3)C3CCCCC3)CC2)nc1", 0.984],
  ["Cc1ccc(C(O)(c2ccccc2)c2ccccc2)c2ccccc12", 0.985],
  ["Cc1cc(C(=O)N(c2ccccc2)C(C)C2CC2)c(Cl)cc1Cl (stereo unspecified)", 0.991],
  ["Clc1ccc(-c2csc(Nc3ccccc3)n2)s1", 0.925],
  ["CCn1nc(C)cc1-c1nnc(Sc2ncc([N+](=O)[O-])s2)n1C", 0.956],
  ["Cc1ccc2c(c1)CCCN2CC(=O)N(c1ccccc1)C1CCCCC1", 0.978],
  ["CN(C(=O)N(C)c1ccc(Cl)cc1C(=O)c1ccccc1Cl)c1ccc(Cl)cc1C(=O)c1ccccc1Cl", 0.853],
  ["Fc1ccc(N/N=C\\Cc2nnnn2-c2ccccc2)c(F)c1", 0.961],
  ["Clc1ccccc1N/N=C\\Cc1nnnn1-c1ccccc1", 0.97],
  ["N#Cc1c(Br)cnn1Cc1cc(C(F)(F)F)cc(C(F)(F)F)c1", 0.999],
  ["N#CCC(=O)c1cccc(CSc2ccccc2Cl)c1", 0.971]
]}

###

- test-description: chemical genetic growth profiling, strain panel (AID 1159580)
- assay-conditions: S. cerevisiae deletion strains, growth OD, locus YDR335W, strain msn5, stronger effect = lower value
Among all 5,500 compounds or so, about 2,000 (36%) were called active. Not shown: some 18% with an inconclusive outcome. The list shows a part of the results.
Listed compounds paired with reported normalized growth
property-measured: normalized growth

{"columns": ["compound", "property-measured", "value-reported"],
 "data": [
  ["CC(=O)Nc1ccc(OC(=O)c2ccccc2O)cc1", "normalized growth", 0.977],
  ["O=C(O)c1cc(=O)c2ccccc2o1", "normalized growth", 0.986],
  ["COc1ccc2cc3[n+](cc2c1OC)CCc1cc2c(cc1-3)OCO2", "normalized growth", 0.967],
  ["CC(=O)CC(c1ccccc1)c1c(O)c2ccccc2oc1=O (configuration not stated)", "normalized growth", 1.01],
  ["CC(=O)Nc1cccc(O)c1", "normalized growth", 1.01],
  ["Nc1ccc(C(=O)O)c(O)c1", "normalized growth", 0.993],
  ["COc1cc2c(cc1OC)-c1cc3ccc(OC)c(OC)c3c[n+]1CC2", "normalized growth", 0.99],
  ["CC(=O)O.CC(=O)O.[Cd]", "normalized growth", 0.782],
  ["C=C1C(N)CC2CC1C2(C)C (configuration not stated)", "normalized growth", 0.995],
  ["CC(=O)Nc1ccc(O)cc1", "normalized growth", 1.01],
  ["O=c1oc2ccccc2c(O)c1Cc1c(O)c2ccccc2oc1=O", "normalized growth", 1.02],
  ["O=c1c2ccccc2oc2ccccc12", "normalized growth", 0.946]
]}

###

- test-description: chemical genetic growth profiling, strain panel (AID 1159580);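 also: tested at 20 µM; growth read once vehicle control cultures reached saturation at 30 °C; 1 = growth at the plate median or of vehicle wells; lower values mean less growth of the strain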
- assay-conditions: S. cerevisiae deletion strains, growth OD, locus YJL157C, strain FAR1
Hit rate of the full screen: of about 5,500 compounds, about 2,000 (36%) were called active. About 18% were inconclusive and are not listed. Cut-off read from the data, not from the text of the source: active = normalized growth mostly below about 0.91 (no sharp cut-off); inconclusive = no clear call, values can overlap the other calls; inactive = mostly above about 0.92. This is one part of the list.
Possible outcomes: active, inactive

{"columns": ["compound", "class-assignment"],
 "data": [
  ["O=C1Nc2ccccc2/C1=N/N=C\\c1cc(Br)cc(Br)c1O", "active"],
  ["CCC(C)Cn1c(Sc2ncc([N+](=O)[O-])s2)n[nH]c1=O (centres undefined)", "inactive"],
  ["CC(C)(C)c1cc2nc(C(F)(F)F)cc(NNC(=O)c3ccc(Cl)cc3)n2n1", "inactive"],
  ["CC(C)(C)c1csc(NC(=O)Nc2ccc(Cl)cc2)n1", "inactive"],
  ["CC(C)c1ccc(-c2cc(=O)c3ccccc3o2)cc1", "inactive"],
  ["CC(C)CSc1nnc(CSCc2nc(-c3ccc(Cl)cc3)cs2)n1C", "inactive"],
  ["CC(C)(C)c1csc(NC(=O)c2ccc(Cl)cc2Cl)n1", "inactive"],
  ["Clc1ccc(-c2csc(Nc3ccccc3)n2)s1", "active"],
  ["O=C(CSCc1nc(-c2ccc(Cl)cc2)cs1)N/N=C\\c1cccs1", "inactive"]
]}

###

- test-description: chemical genetic growth profiling, strain panel (AID 1159580);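 also: tested at 20 µM; growth read once vehicle control cultures reached saturation at 30 °C; 1 = growth at the plate median or of vehicle wells; lower values mean less growth of the strain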
- assay-conditions: S. cerevisiae deletion strains, growth OD, locus YLR403W, strain SFP1
Out of some 5,500 compounds screened, about 2,000 (36%) were called active. Inconclusive results (about 18%) are left out. Cut-off read from the data, not from the text of the source: active = normalized growth mostly below about 0.91 (no sharp cut-off); inconclusive = no clear call, values can overlap the other calls; inactive = mostly above about 0.92. The list shows a part of the results.
Possible outcomes: 1 for active, -1 for inactive

{"columns": ["molecule", "class-assignment"],
 "data": [
  ["CCC(C)COC(=O)/C=C/c1ccc(N=Cc2ccc(OC)cc2)cc1 (configuration not stated)", -1],
  ["N=c1ccc2nc3c(Cl)c4c(c(Cl)c3oc-2c1S(=O)(=O)O)Nc1ccc(N)c(S(=O)(=O)O)c1O4", -1],
  ["CCCc1cnc(N2CCN(CC(=O)N(c3ccccc3)C3CCCCC3)CC2)nc1", -1],
  ["N/C(CSc1ccc(Cl)cc1)=N/OC(=O)c1ccc(C(F)(F)F)cc1", -1],
  ["Clc1ccc(-c2csc(Nc3ccccc3)n2)s1", 1],
  ["O=C1Nc2ccccc2/C1=N/N=C\\c1cc(Br)cc(Br)c1O", 1],
  ["CC(C)(C)c1csc(NC(=O)Nc2ccc(Cl)cc2)n1", 1],
  ["N#CCC(=O)c1cccc(CSc2ccccc2Cl)c1", -1],
  ["Cc1ccc(C(=O)O/N=C(/N)CSc2ncccc2C(F)(F)F)cc1", -1],
  ["C#Cc1cccc(N=Cc2cc(Cl)cc(Br)c2O)c1", 1],
  ["O=C1c2ccccc2O[C@@H](c2ccccc2)[C@@H]1NC1CCCCC1", -1],
  ["CC(C)c1ccc(-c2cc(=O)c3ccccc3o2)cc1", -1],
  ["Cc1ccc2c(c1)CCCN2CC(=O)N(c1ccccc1)C1CCCCC1", -1],
  ["CC(C)(C)c1cc2nc(C(F)(F)F)cc(NNC(=O)c3ccc(Cl)cc3)n2n1", -1],
  ["CC(C)(C)c1csc(NNC(=O)c2ccc(Cl)cc2)n1", -1],
  ["Cc1cc(C(=O)O/N=C(/N)CSc2ncccc2C(F)(F)F)no1", -1],
  ["O=C(NCc1cccs1)c1csc(Cc2c(Cl)cccc2Cl)n1", -1]
]}

###

- test-description: chemical genetic growth profiling, strain panel (AID 1159580);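 also: tested at 20 µM; growth read once vehicle control cultures reached saturation at 30 °C; 1 = growth at the plate median or of vehicle wells; lower values mean less growth of the strain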
- assay-conditions: S. cerevisiae deletion strains, growth OD, locus YOL012C, strain htz1
Screen size: about 5,500 compounds; about 2,000 (36%) were called active. About 18% were inconclusive and are not listed. Rule as the data show it: active = normalized growth mostly below about 0.91 (no sharp cut-off); inconclusive = no clear call, values can overlap the other calls; inactive = mostly above about 0.92. This is one part of the list.
Possible outcomes: 1 (active), 0 (inactive)

{"columns": ["compound", "class-assignment"],
 "data": [
  ["C[C@@H]1CC[C@@]2(OC1)OC1C(O)C3C4CC[C@H]5C[C@H](O[C@@H]6O[C@H](CO)[C@H](O[C@@H]7O[C@H](CO)[C@@H](O)[C@H](O[C@@H]8OC[C@@H](O)[C@H](O)[C@H]8O)[C@H]7O[C@@H]7O[C@H](CO)[C@H](O)[C@H](O[C@@H]8O[C@H](CO)[C@@H](O)[C@H](O)[C@H]8O)[C@H]7O)[C@H](O)[C@H]6O)[C@H](O)C[C@]5(C)C4CC[C@]3(C)C1[C@@H]2C (stereo not given in full)", 1],
  ["COc1ccc(-c2cc(=O)c3ccccc3o2)cc1OC", 0],
  ["COc1ccc(-c2cc(=O)c3c(OC)cccc3o2)cc1", 0],
  ["COc1ccc(-c2cc(=O)c3ccccc3o2)cc1", 0],
  ["CC(C)Oc1ccc2c(=O)cc(-c3ccccc3)oc2c1", 0]
]}

Measured values drawn from PubChem BioAssay AID1159580 for this set.
